System: 282377-053-R-J1-PDC complex spheroid viability;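 note: spheroids exposed to agents for seven days before readout; luminescence viability as percent of DMSO vehicle control wells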
Assay: Anticancer human tumor 282377-053-R-J1-PDC patient-derived colon adenocarcinoma cell line growth inhibition [RAS]
Details: second compound 0.00949 µM; first compound 0.0316 µM; stronger effect = lower value
RECORDED ENDPOINT: viability, T/C (%)

molecule="O=C(c1ccc(F)c(F)c1Nc1ccc(I)cc1F)N1CC(O)([C@@H]2CCCCN2)C1 + CCn1c(-c2cccnc2C(C)OC)c2c3cc(ccc31)N1CCOC(CC(NC(=O)C(C(C)C)N(C)C(=O)C3(F)CCN(C(=O)C#CC(C)(C)N(C)C)CC3)C(=O)N3CCCC(N3)C(=O)OCC(C)(C)C2)C1" assayed_system="282377-053-R-J1-PDC complex spheroid viability" unit_of_measurement=% test_result=48.3
molecule="C=CC(=O)N1CCN(c2nc(OCC3CCCN3C)nc3c(F)c(-c4nc(N)cc(C)c4C(F)(F)F)c(Cl)cc23)C(C)C1 (centres undefined) + CCn1c(-c2cc(N3CCN(C)CC3)cnc2C(C)OC)c2c3cc(ccc31)-c1csc(n1)CC(NC(=O)C1CC1C)C(=O)N1CCCC(N1)C(=O)OCC(C)(C)C2" assayed_system="282377-053-R-J1-PDC complex spheroid viability" unit_of_measurement=% test_result=115
molecule="NC1c2ccccc2OC12CCN(c1cnc3c(N4CCCc5ncccc54)n[nH]c3n1)CC2 (centres undefined) + CCn1c(-c2cccnc2C(C)OC)c2c3cc(ccc31)N1CCOC(CC(NC(=O)C(C(C)C)N(C)C(=O)C3(F)CCN(C(=O)C#CC(C)(C)N(C)C)CC3)C(=O)N3CCCC(N3)C(=O)OCC(C)(C)C2)C1" assayed_system="282377-053-R-J1-PDC complex spheroid viability" unit_of_measurement=% test_result=96.5
molecule="C[C@@H](NC(=O)c1ncnc(N)c1Cl)c1ncc(C(=O)Nc2cc(C(F)(F)F)c(Cl)cn2)s1 + CCn1c(-c2cc(N3CCN(C)CC3)cnc2C(C)OC)c2c3cc(ccc31)-c1csc(n1)CC(NC(=O)C1CC1C)C(=O)N1CCCC(N1)C(=O)OCC(C)(C)C2" assayed_system="282377-053-R-J1-PDC complex spheroid viability" unit_of_measurement=% test_result=110
